# Tested on: HCT116 colon carcinoma
# ASSAY NAME: MTT assay, cell growth inhibition of HCT116 colon carcinoma
# Format: cell-based
# CONDITION SUMMARY: Homo sapiens, HCT-116, 72 h, MTT, 72 h incubation; mean of three independent experiments ± SD; IC50 > 50 means inhibition <20% at 50 μM
# Procedure: All conjugated compounds prepared via click chemistry and listed in Table 1 were evaluated in vitro for their cytotoxic activity against K562 leukemia cells and the colon cancer cell line HCT116. Normal human skin fibroblast cells were chosen as a control and cisplatin served as a reference compound. The cytotoxicity was evaluated using the MTT assay (details are reported in the Materials and Methods section). […]
ASSAY METRIC: IC50

# count of solved cases: 6
compound="CC(CCn1cc(CCCCC#Cc2nc3c(=O)[nH]c(N)nc3n2[C@H]2C[C@H](O)[C@@H](CO)O2)nn1)[C@H]1CCC2C3C(CC[C@@]21C)[C@@]1(C)CC[C@@H](O)CC1C[C@@H]3O (stereo partly shown) [dG-nor-UDC]" recorded_measurement="> 50 µM"
compound="COC(=O)CCC(C)[C@H]1CCC2C3C(CC[C@@]21C)[C@@]1(C)CC[C@@H](n2cc(CCCCC#Cc4nc5c(=O)[nH]c(N)nc5n4[C@H]4C[C@H](O)[C@@H](CO)O4)nn2)CC1C[C@@H]3O (stereo partly shown) [dG-UDC]" recorded_measurement="> 50 µM"
compound="CC(CCC(=O)NCCS(=O)(=O)O)[C@H]1CCC2C3C(CC[C@@]21C)[C@@]1(C)CC[C@@H](n2cc(CCCCC#Cc4cn([C@H]5C[C@H](O)[C@@H](CO)O5)c(=O)[nH]c4=O)nn2)CC1C[C@@H]3O (stereo partly shown) [dU-TUDCA]" recorded_measurement="> 50 µM"
compound="CC(CCn1cc(CCCCC#Cc2nc3c(N)ncnc3n2[C@H]2C[C@H](O)[C@@H](CO)O2)nn1)[C@H]1CCC2C3C(CC[C@@]21C)[C@@]1(C)CC[C@@H](O)CC1C[C@H]3O (stereo partly shown) [dA-nor-CDC]" recorded_measurement="≤ 25 µM"
compound="CC(CCC(=O)NCCS(=O)(=O)O)[C@H]1CCC2C3C(CC[C@@]21C)[C@@]1(C)CC[C@@H](n2cc(CCCCC#Cc4nc5c(N)ncnc5n4[C@H]4C[C@H](O)[C@@H](CO)O4)nn2)CC1C[C@@H]3O (stereo partly shown) [dA-TUDCA]" recorded_measurement="> 50 µM"
compound="COC(=O)CCC(C)[C@H]1CCC2C3C(CC[C@@]21C)[C@@]1(C)CC[C@@H](n2cc(CCCCC#Cc4nc5c(=O)[nH]c(N)nc5n4[C@H]4C[C@H](O)[C@@H](CO)O4)nn2)CC1C[C@H]3O (stereo partly shown) [dG-CDC]" recorded_measurement="> 50 µM"

query: For CC(CCn1cc(CCCCC#Cc2nc3c(N)ncnc3n2C2OC(CO)C(O)C2O)nn1)C1CCC2C3C(O)CC4CC(O)CCC4(C)C3CCC12C (stereo not shown) [A-nor-CDC] , what is its reported IC50?
result: 44.1 µM
